All values here come from patent US20240385190A1.

Molecular target: T1, Mouse
T1 construct: also called mouse EphA4 extracellular domain-SEAP-His protein
Assay: ELISA
Reported metric: absorbance
Lab note: jot the number down without any unit.

Before answering, review these 2 worked examples.
KPEP11_02 (antibody, V domains shown, Rabbit IgG; also called anti-human EphA4 rabbit monoclonal antibody KPEP11_02) VH: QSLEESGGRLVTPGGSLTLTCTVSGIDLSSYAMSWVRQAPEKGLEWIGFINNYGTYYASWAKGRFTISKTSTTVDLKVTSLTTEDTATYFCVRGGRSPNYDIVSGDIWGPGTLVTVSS VL: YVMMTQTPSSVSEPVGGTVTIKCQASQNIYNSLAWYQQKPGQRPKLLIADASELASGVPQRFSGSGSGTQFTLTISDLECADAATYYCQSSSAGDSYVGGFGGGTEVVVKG; 0.048
KPEP11_01 (antibody, V domains shown, also called anti-human EphA4 rabbit monoclonal antibody KPEP11_01) VH: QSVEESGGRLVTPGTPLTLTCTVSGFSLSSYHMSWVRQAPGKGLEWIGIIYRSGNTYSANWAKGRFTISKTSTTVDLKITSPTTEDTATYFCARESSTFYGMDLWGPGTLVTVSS VL: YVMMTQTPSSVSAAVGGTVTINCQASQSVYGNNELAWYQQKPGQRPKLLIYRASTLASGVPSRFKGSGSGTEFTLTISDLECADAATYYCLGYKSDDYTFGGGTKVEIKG; 0.049

Input line: Fill in reported absorbance for this entry: KPEP11_05 (antibody, V domains shown, Rabbit IgG; also called anti-human EphA4 rabbit monoclonal antibody KPEP11_05) VH: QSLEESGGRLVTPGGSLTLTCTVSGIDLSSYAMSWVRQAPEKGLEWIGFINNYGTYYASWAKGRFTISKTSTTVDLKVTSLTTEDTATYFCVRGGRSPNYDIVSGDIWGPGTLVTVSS VL: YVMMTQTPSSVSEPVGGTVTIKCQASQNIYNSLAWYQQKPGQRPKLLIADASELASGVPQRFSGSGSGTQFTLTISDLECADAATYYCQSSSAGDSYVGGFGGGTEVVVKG
Output line: 0.045
